Origin of the recorded values: patent US6566376B1

Each entry below carries its recorded melting point.
Structures can show the parent of a compound that is named as a salt.

Solved entries (count: 10):
Cc1ccc(Cn2ccc(CN3CCC(c4ccccc4)(c4ccccc4)CC3)n2)cc1 (as salt: hydrochloride) | 147 to 148 °C
Clc1cccc(Cn2ccc(CN3CCC(c4ccccc4)(c4ccccc4)CC3)n2)c1 | 136 to 137 °C
COc1cc(Cl)ccc1Cn1ccc(CN2CCC(c3ccccc3)(c3ccccc3)CC2)n1 (as salt: hydrochloride) | 73 to 74 °C
CN(C)C(=O)COc1cc(Cl)ccc1Cn1ccc(CN2CCC(c3ccccc3)(c3ccccc3)CC2)n1 (as salt: hydrochloride) | 181 to 182 °C
Clc1ccc(Cn2ccc(CN3CCC(c4ccccc4)(c4ccccc4)CC3)n2)cc1 (as salt: hydrochloride) | 137 to 138 °C
FC(F)(F)c1ccc(Cn2ccc(CN3CCC(c4ccccc4)(c4ccccc4)CC3)n2)cc1 (as salt: hydrochloride) | 66 to 67 °C
OCc1cn(Cc2ccc(Cl)cc2)nc1CN1CCC(c2ccccc2)(c2ccccc2)CC1 | 104 to 105 °C
O=Cc1cn(Cc2ccc(Cl)cc2)nc1CN1CCC(c2ccccc2)(c2ccccc2)CC1 | 133 to 134 °C
Clc1ccc(Cn2nncc2CN2CCC(c3ccccc3)(c3ccccc3)CC2)cc1 | 195 °C
Clc1ccc(Cn2ccc(CN3CCC(c4ccccc4)(c4ccccc4)CC3)n2)cc1Cl (as salt: hydrochloride) | 191 to 192 °C

Ask | Look up melting point for this compound: Oc1cc(Cl)ccc1Cn1ccc(CN2CCC(c3ccccc3)(c3ccccc3)CC2)n1 (as salt: hydrochloride)
Reply | 260 to 261 °C

Ask | Look up melting point for this compound: Clc1ccc(Cn2cc(CN3CCC(c4ccccc4)(c4ccccc4)CC3)nn2)cc1
Reply | 148 °C

* * *

Each entry below carries its recorded melting point.
Structures can show the parent of a compound that is named as a salt.

Clc1ccc(Cc2ncc(CN3CCC(c4ccccc4)(c4ccccc4)CC3)[nH]2)cc1 (as salt: hydrochloride) | 186 to 187 °C
Clc1ccc(Cn2cnc(CN3CCC(c4ccccc4)(c4ccccc4)CC3)c2)cc1 (as salt: hydrochloride) | 254 to 255 °C

Shifting focus to the molecule that follows.
Ask | Look up melting point for this molecule: O=C(O)c1c(CN2CCC(c3ccccc3)(c3ccccc3)CC2)ncn1Cc1ccc(Cl)cc1
Reply | 135 to 136 °C

* * *

Where a name gives a salt, the structure may show the parent alone.
Each entry below carries its recorded melting point.

Solved entries (count: 4):
NC(=O)c1c(CN2CCC(c3ccccc3)(c3ccccc3)CC2)ncn1Cc1ccc(Cl)cc1 | 227 to 228 °C
Clc1ccc(Cn2ccc(CN3CCC(c4ccccc4)(c4ccccc4)CC3)n2)c(Cl)c1 (as salt: hydrochloride) | 101 to 102 °C
Fc1ccc(Cn2ccc(CN3CCC(c4ccccc4)(c4ccccc4)CC3)n2)cc1 (as salt: hydrochloride) | 192 to 193 °C
O=C(c1cnc(Cc2ccc(Cl)cc2)[nH]1)N1CCC(c2ccccc2)(c2ccccc2)CC1 [Example 23] | 105 to 106 °C

Shifting focus to the compound that follows.
Ask | Look up melting point for this compound: Cc1ccc(Cn2ccc(CN3CCC(c4ccccc4)(c4ccccc4)CC3)n2)cc1C
Reply | 139 to 140 °C
